Recorded IC50, one value per entry.
test.target: Phosphatidylinositol 4,5-bisphosphate 3-kinase catalytic subunit delta isoform (Homo sapiens)
Sequence (O00329 whole entry, canonical isoform): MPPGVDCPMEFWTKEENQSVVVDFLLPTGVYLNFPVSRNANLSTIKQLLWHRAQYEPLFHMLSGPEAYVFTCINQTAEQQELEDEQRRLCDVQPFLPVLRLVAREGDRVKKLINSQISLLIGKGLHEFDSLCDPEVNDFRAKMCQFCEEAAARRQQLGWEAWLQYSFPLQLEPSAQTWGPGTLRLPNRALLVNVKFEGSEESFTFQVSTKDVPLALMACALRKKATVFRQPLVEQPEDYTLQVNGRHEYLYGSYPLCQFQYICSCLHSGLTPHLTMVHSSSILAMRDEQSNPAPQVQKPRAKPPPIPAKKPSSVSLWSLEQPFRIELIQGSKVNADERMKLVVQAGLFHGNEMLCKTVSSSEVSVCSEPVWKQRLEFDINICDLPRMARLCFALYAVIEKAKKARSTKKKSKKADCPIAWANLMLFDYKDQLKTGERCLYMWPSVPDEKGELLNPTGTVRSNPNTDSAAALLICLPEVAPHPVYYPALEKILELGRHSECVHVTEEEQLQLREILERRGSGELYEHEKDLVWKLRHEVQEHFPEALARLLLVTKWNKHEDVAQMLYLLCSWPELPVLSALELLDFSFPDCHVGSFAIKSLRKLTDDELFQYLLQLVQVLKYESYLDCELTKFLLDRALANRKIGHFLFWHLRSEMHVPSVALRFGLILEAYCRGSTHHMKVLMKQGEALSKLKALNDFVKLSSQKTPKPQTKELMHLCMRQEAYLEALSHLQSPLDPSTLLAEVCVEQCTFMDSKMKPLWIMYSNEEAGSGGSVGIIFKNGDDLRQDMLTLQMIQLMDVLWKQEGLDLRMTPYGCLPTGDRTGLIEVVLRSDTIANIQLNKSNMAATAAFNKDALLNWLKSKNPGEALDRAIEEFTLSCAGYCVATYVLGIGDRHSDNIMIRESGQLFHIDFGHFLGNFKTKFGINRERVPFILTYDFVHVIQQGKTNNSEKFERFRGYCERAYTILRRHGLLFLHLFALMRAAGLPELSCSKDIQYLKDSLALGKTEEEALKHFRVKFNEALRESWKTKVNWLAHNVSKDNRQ
experiment: Inhibition of GST-tagged PI3Kdelta […] (unknown origin) using PIP2 as subtrate after 1 hr in presence of biotin-labeled PIP3 by TR-FRET assay

Answered cases to consult:
compound=COc1ncc(N2CCOCC2)cc1S(=O)(=O)Nc1ccnc(-c2ccc(CN3CCN(C4COC4)CC3)cc2F)c1 measured="≤ 10 µM"
compound=COc1ncc(N2CCOCC2)cc1S(=O)(=O)Nc1ccnc(-c2cc(F)c(CN3CCN(C(C)C)CC3)c(F)c2)c1 measured="≤ 10 µM"

Query: Requested field: IC50. Item: COc1ncc(N2CCOCC2)cc1S(=O)(=O)Nc1ccnc(-c2ccc(CN(C)C)cc2)c1
Response: ≤ 10 µM

Query: Requested field: IC50. Item: CCOC(=O)CN(c1ccnc(-c2ccc(CN3CCN(C(C)C)CC3)cc2F)c1)S(=O)(=O)c1cc(N2CCOCC2)cnc1OC
Response: ≤ 10 µM

Query: Requested field: IC50. Item: COc1ncc(N2CCOCC2)cc1S(=O)(=O)Nc1ccnc(-c2ccc(CN3CCCC3)c(F)c2)c1
Response: ≤ 10 µM

Query: Requested field: IC50. Item: COc1ncc(N2CCOCC2)cc1S(=O)(=O)N(c1ccnc(-c2ccc(CN3CCN(C(C)C)CC3)cc2F)c1)C(C)C
Response: ≤ 10 µM

Query: Requested field: IC50. Item: COc1ncc(N2CCOCC2)cc1S(=O)(=O)Nc1ccnc(-c2cc(Cl)c(CN3CCN(C(C)C)CC3)cc2F)c1
Response: ≤ 10 µM

Query: Requested field: IC50. Item: COc1ncc(N2CCOCC2)cc1S(=O)(=O)Nc1ccnc(-c2ccc(CN3CCC(C)C3)cc2F)c1 (centres undefined)
Response: ≤ 10 µM

Query: Requested field: IC50. Item: COc1ncc(N2CCOCC2)cc1S(=O)(=O)Nc1ccnc(-c2ccc(CN3CCCC3C)cc2F)c1 (centres undefined)
Response: ≤ 10 µM
